biological target: Histone deacetylase (Homo sapiens) (UniProt Q13547+O15379+Q9UBN7+Q92769+Q9UQL6+Q8WUI4+Q9BY41+Q96DB2+P56524+Q9UKV0+Q969S8); experiment: Inhibition of HDAC in human K562 cells assessed as increase in acetylated histone H3 measured after 48 hrs by Western blot analysis; assay type: cell-based
The source made the active and inactive calls. The rule behind the calls is not given here.
Assay Metric: Activity

Cc1[nH]c(C(=O)Nc2cc(S(=O)(=O)N3CCOCC3)ccc2OCCCCCCCC(=O)NO)c2c1C(=O)CCCC2 | Active
CCc1c(C(=O)Nc2cc(/C=C/C(=O)NO)ccc2OC)[nH]c(C)c1C(C)=O | Active
CCc1c(C(=O)Nc2cccc(/C=C/C(=O)NO)c2)[nH]c(C)c1C(C)=O | Active
COc1ccc(S(=O)(=O)n2ccc(/C=C/C(=O)NO)c2)cc1NC(=O)c1[nH]c(C)c2c1CCCCC2=O | Active

###

molecular target: Bromodomain-containing protein 2 (Homo sapiens, UniProt P25440); assay: Binding affinity to human BRD2 domain 2 assessed as dissociation constant by isothermal titration calorimetry assay
Sequence (P25440 whole entry, the tested form may be a part): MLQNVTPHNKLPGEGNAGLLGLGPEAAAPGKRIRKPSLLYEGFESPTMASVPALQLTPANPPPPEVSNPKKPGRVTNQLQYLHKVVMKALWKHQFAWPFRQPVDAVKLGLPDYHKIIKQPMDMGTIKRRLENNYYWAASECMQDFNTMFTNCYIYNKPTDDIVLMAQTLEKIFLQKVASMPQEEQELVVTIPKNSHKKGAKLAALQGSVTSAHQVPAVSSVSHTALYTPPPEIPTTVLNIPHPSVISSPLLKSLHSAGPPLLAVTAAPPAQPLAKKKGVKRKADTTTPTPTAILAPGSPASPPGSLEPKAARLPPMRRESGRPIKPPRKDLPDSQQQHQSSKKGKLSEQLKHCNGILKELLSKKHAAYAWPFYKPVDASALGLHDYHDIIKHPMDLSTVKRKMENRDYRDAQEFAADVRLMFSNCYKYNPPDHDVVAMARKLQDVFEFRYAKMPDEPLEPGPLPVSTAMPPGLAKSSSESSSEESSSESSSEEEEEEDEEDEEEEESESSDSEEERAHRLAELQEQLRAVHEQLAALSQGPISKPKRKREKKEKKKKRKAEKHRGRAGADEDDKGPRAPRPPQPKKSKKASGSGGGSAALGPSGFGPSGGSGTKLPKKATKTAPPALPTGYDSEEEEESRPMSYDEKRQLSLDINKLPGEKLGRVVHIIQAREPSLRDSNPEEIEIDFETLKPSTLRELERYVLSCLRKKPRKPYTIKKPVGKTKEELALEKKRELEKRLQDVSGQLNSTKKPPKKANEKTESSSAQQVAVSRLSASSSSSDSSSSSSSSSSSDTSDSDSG
pKd: −log10 of the molar value.
Assay Metric: pKd

Look over these answered cases.
COc1ccc(S(=O)(=O)n2ccc(/C=C/C(=O)NO)c2)cc1NC(=O)c1[nH]c(C)c2c1CCCCC2=O | 5.51
Cc1[nH]c(C(=O)Nc2cc(S(=O)(=O)N3CCOCC3)ccc2OCCCCCCCC(=O)NO)c2c1C(=O)CCCC2 | 7.17

[A] CCc1c(C(=O)Nc2cc(/C=C/C(=O)NO)ccc2OC)[nH]c(C)c1C(C)=O
[B] CCc1c(C(=O)Nc2cc(S(=O)(=O)N(CC)CC)ccc2O)[nH]c(C)c1C(C)=O
Qu. Which shows the larger pKd value: A or B ? When you have decided, please share the label of that item.
Ans. B
(B: 6.08, A: 5.48)

###

target: Protein deacetylase HDAC6 (Homo sapiens, UniProt Q9UBN7); test: Inhibition of human recombinant HDAC6 assessed as fluorescence using fluorogenic substrate ZMAL incubated for 90 min by microplate reader
Sequence (Q9UBN7 whole entry): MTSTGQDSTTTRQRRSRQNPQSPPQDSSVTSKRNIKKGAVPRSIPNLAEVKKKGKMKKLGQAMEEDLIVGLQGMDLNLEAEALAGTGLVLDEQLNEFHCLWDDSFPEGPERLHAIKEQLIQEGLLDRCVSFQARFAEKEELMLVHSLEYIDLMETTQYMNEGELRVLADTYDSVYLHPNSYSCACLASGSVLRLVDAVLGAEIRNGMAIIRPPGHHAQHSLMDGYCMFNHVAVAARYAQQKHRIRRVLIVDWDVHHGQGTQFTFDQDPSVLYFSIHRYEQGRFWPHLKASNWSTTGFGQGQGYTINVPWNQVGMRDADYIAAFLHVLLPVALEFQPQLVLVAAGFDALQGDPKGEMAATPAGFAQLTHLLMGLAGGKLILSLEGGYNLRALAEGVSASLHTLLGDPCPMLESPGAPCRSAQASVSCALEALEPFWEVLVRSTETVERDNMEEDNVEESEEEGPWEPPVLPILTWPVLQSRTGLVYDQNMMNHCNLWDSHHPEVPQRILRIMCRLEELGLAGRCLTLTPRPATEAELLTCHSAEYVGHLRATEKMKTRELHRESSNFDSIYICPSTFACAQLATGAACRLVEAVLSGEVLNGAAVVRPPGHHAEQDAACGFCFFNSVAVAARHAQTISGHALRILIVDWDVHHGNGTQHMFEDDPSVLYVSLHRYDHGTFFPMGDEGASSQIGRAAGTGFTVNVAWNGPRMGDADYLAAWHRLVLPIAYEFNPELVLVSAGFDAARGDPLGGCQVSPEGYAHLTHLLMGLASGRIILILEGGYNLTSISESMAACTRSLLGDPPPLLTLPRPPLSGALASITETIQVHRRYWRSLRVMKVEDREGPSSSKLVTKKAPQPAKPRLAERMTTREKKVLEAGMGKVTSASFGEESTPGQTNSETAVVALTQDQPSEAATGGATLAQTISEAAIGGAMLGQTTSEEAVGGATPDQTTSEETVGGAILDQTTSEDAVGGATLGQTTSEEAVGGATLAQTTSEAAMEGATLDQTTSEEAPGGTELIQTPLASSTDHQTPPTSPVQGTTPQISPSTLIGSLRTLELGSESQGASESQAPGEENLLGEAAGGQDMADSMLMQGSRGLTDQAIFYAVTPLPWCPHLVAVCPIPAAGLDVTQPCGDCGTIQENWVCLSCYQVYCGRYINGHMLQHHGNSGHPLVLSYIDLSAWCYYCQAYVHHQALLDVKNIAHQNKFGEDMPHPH
pIC50: −log10 of the molar value.
Assay Metric: pIC50

CCc1c(C(=O)Nc2cccc(CCC(=O)OC)c2)[nH]c(C)c1C(C)=O | < 4.48
COC(=O)CCCCCCCOc1ccc(S(=O)(=O)N2CCOCC2)cc1NC(=O)c1c2c(c(C)n1C)C(=O)CCCC2 | < 5.00

Entry "CCc1c(C(=O)Nc2cccc(CCC(=O)Nc3ccccc3N)c2)[nH]c(C)c1C(C)=O" — recorded pIC50 = < 4.00

From: ChEMBL document CHEMBL5055650
